- Test system: SF-268 CNS
- assay-protocol: NCI tumour cell line growth inhibition, 48 h
assay-metric: TGI (µM)
Hi! Could you send only the number? It should be in µM, unit omitted.

Recorded result, NC1=NCN(C2OC(CO)C(O)C2O)C(=O)N1 (stereo not given) , TGI: 2460

Recorded result, COCC(C(=O)OC1C/C=C/C=C/C(=O)OC(C(C)C(O)C(C)CCC(OC(=O)C(C)N(C)C)C(C)C(OC(C)=O)C(C)/C=C/N(C)C=O)C/C=C/C(OC)CC(C)C/C=C(\C)C(OC)CCC(C)C(O)C1C)N(C)C (stereo not given) , TGI: 0.00161

---

- System: MDA-MB-435
- assay-protocol: NCI tumour cell line growth inhibition, 48 h
Response key: 1 (yes) means TGI >= 30 µM; 0 (no) means TGI < 30 µM.

Determine whether measured TGI meets or exceeds 30 µM for O=[N+]1[C@H](c2ccccc2)[C@H](c2ccccc2)N1[O-]
1 (yes)

Determine whether measured TGI meets or exceeds 30 µM for CN(N=O)c1nc2c(C(N)=O)ncn2s1
1 (yes)

Determine whether measured TGI meets or exceeds 30 µM for O=C1c2c(Br)sc(Br)c2[C@@H](O)[C@H]1O
0 (no)

Determine whether measured TGI meets or exceeds 30 µM for COC(=O)C(=O)C(C(=O)C(=O)Nc1ccc(C)cc1C)c1nc2ccc(Cl)cc2[nH]c1=O (stereo unspecified)
1 (yes)

Determine whether measured TGI meets or exceeds 30 µM for Nc1nc(SCC(=O)c2ccc(Br)cc2)c2[nH]cnc2n1
1 (yes)

Determine whether measured TGI meets or exceeds 30 µM for O=C(Nc1ccccc1)Oc1ccc(C(=S)Nc2ccc(Br)cc2)cc1
1 (yes)

Determine whether measured TGI meets or exceeds 30 µM for Nc1ccccc1C#Cc1ccccc1C#Cc1cccs1
0 (no)

Determine whether measured TGI meets or exceeds 30 µM for C=CC(=O)Nc1cc2c(Nc3ccc(F)c(Cl)c3)ncnc2cc1C#CC(C)(C)N1CCN(C)CC1
0 (no)

Determine whether measured TGI meets or exceeds 30 µM for O=[N+]([O-])c1ccc(-c2nn3c(C45CC6CC(CC(C6)C4)C5)nnc3s2)c(Cl)c1
1 (yes)

Determine whether measured TGI meets or exceeds 30 µM for CSc1nc(=O)cnn1C
1 (yes)
